Where these numbers come from: patent US10945972B2

# Experiment: Differential scanning calorimetry (Example 8)
# Format: physicochemical
# Test Conditions: DSC, 10° C. min^−1
Where a name gives a salt, the structure may show the parent alone.
Measurement Name: Enthalpy of Fusion (J/g)
Answers are plain numbers, in J/g.

Sample answers from the record:
CC(C)(C)NCC(O)c1cc(O)cc(O)c1 (stereo not shown) [TBS 5, terbutaline sulfate]	57.69
CC(C)(C)NCC(O)c1cc(O)cc(O)c1 (stereo not shown) [TBS 4, terbutaline sulfate]	40.98
CC(C)(C)NCC(O)c1cc(O)cc(O)c1 (stereo not shown) [TBS 1, terbutaline sulfate]	127.12

// below: Enthalpy of Fusion requested for another compound
INPUT: Which measured Enthalpy of Fusion value corresponds to CC(C)(C)NCC(O)c1cc(O)cc(O)c1 (stereo not shown) [TBS 3, terbutaline sulfate] ?
OUTPUT: 31.35
